Target: T1, human CD40-His tag protein (Sino Biological Inc. Cat #10239-H08E) (human, UniProt P25942 21-193)
T1 construct: also called human CD40 protein; CD40 protein; not shown: His tag
T1 sequence (P25942 21-193 limits assumed, stated change not applied): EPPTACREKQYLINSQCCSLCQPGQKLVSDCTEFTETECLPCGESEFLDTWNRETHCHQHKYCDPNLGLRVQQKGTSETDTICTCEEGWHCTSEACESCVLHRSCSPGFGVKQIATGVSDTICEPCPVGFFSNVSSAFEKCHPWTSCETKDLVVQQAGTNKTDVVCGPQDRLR
Assay: ELISA, plate coated with human CD40-His at 1 ug/ml, anti-human IgG-HRP, A450
From the text: […]
reported.property: EC50 (read off the curve)

Known results for binders:
| binder | reported.result |
| --- | --- |
| LYV391 (chimeric antibody, 36G7B8 in hG4SP / human kappa) (antibody, human IgG4 S228P, kappa, V domains shown, Human IgG4 S228P and human kappa; also called 36G7B8 chimeric; 366788 (LYV391)) VH: QVQLQQPGAELVRPGASVKLSCKASGYIFISYWIHWLKQRPGRGLEWIGRIDPNNGGTKYNEKFRYKASLTVDKSSSTAYMQLSSLTSEDSAVYYCTKGVITTLVAGDYWGQGTTLTVSS VL: DVVMTQIPLSLPVSIGDQASISCRSSQSLVYSYGNTYLHWFLQKPGQSPKLLIYNVSNRFSGVPDRFSGSGSGTDFTLRISRVEAEDLGVYFCSQGTHVPWTFGGGTKLEIKR | ~0.02 µg/mL |
| LYV376 (chimeric antibody, 19G6D6 in human IgG4SP / human kappa) (antibody, V domains shown, also called 19G6D6 chimeric; 1966D6 (LYV376)) VH: EVQLQQSGPELVKPGASVKIPCKASGYTFTDYNMDWVKQSHGKSLEWIGDINPNNDISIYNQKFRGKATLTVDKSSSTAYMELRSLTSEDTAVYYCARRFAYWGQGTLVTVSA VL: EIVLTQSPTTMAASPGEKITITCSASSSISSNYLHWYQQKPGSSPKVLIYRTSNLASGVPVRFSGSGSGTSYSLTIGTMEAEDVATYYCQQGSSIPYTFGGGTKLEIKR | ~0.003 µg/mL |
| LYV377 (chimeric antibody, 13F1A7 in human IgG4SP / human kappa) (antibody, V domains shown, Human IgG4 S228P and human kappa; also called 13F1A7 chimeric; LTV377) VH: EVQILETGGGLVKPGGSLRLSCATSGFNFNDSFMNWVRQAPGKGLEWVAQIRNKNYNYATYYTESLEGRVTISRDDSKSRVYLQVSSLRAEDSAVYYCTSYYYDGFADYFDYWGQGVMVTVSS VL: DIKMTQSPSFLSASVGDSVTFTCKASQNIYIYLNWYQQKFGEAPKLLIYNTNNLQTGIPSRFSGSESGTVFTLTISSLQPEDVATYFCLQHSSRRTFGGGTKLELKR | ~0.004 µg/mL |

[ask] Entry LYV379 (chimeric antibody, 17C5C2 in human IgG4SP / human kappa) (antibody, V domains shown, Human IgG4 S228P and human kappa; also called 17C5C2 chimeric) VH: EVHILETGGGLVKPGGSLGLSCTTSGFNFNDYFMNWVRQAPGKGLEWVAQIRNGNYDYAAYYAESLEGRVTISRDDSKSSVNLQVSSLRAEDTAIYYCTSYYYDGHFDYFDNWGHGVMVTVSS VL: DIKVTQSPSFLSASVGDRATINCKASQNLNKYLNWYQQKPGEPPKLLIYNTDNLYTGIPSRFSGSGSVADFTLTISGLQPEDVATYFCMQHNVRRTFGGGTKLELKR needs its EC50 (read off the curve) filled in; supply it.
[reply] ~0.02 µg/mL
